Recorded pest or weed control at 250 g/ha by entry
Test system: Alopecurus myosuroides (ALOMY)
Assay: Example A glasshouse herbicide test, post-emergence, ALOMY
Assay type: in vivo
Conditions: Alopecurus myosuroides, post-emergence, 312 h, Rate 250 g/ha, sprayed after 8 days cultivation, evaluated after 13 days, read-out: Post-Emergence Activity ALOMY (100=total damage to plant; 0=no damage to plant)
API: value field is a number in %; no unit string.

Past entries and their recorded results:
COC1CCC(CC2CC(=O)C(c3c(C)cc(C)cc3C)C2=O)CC1 (stereo not shown); 100
Cc1cccc(CC2CC(OC(=O)C(C)(C)C)=C(c3c(C)cc(C)cc3C)C2=O)c1 (stereo not shown); 60
Cc1cc(C)c(C2C(=O)CC(Cc3ccccc3)C2=O)c(C)c1 (stereo not shown); 80
COC1CCC(/C=C2\CC(=O)C(c3c(C)cc(C)cc3C)C2=O)CC1 (stereo not shown); 90
Cc1cccc(CC2CC(=O)C(c3c(C)cc(C)cc3C)C2=O)c1 (stereo not shown); 80
Cc1cc(C)c(C2C(=O)CC(CC3CCCCCC3)C2=O)c(C)c1 (stereo not shown); 50

# next molecule below
### Prompt Entry Cc1cc(C)c(C2=C(OC(=O)C(C)(C)C)CC(CC3CCCCC3)C2=O)c(C)c1 (stereo not shown) : reported pest or weed control at 250 g/ha = ?
### Response 80

* * *

Tested on: Alopecurus myosuroides (ALOMY)
Test: Example A glasshouse herbicide test, post-emergence, ALOMY
Assay type: in vivo
Conditions: Alopecurus myosuroides, post-emergence, 312 h, Rate 250 g/ha, sprayed after 8 days cultivation, evaluated after 13 days, read-out: Post-Emergence Activity ALOMY (100=total damage to plant; 0=no damage to plant)
Recorded pest or weed control at 250 g/ha by entry
API: value field is a number in %; no unit string.

Past entries and their recorded results:
Cc1cc(C)c(C2C(=O)CC(Cc3cc(F)cc(F)c3)C2=O)c(C)c1 (stereo not drawn) [Compound A20]; 20
Cc1cc(C)c(C2C(=O)CC(Cc3ccc(-c4csnn4)cc3)C2=O)c(C)c1 (stereo not drawn) [Compound A16]; 20

# next compound below
### Prompt Entry Cc1cc(C)c(C2=C(OC(=O)C(C)(C)C)CC(Cc3cccc(Oc4ccccc4)c3)C2=O)c(C)c1 (stereo not drawn) [Compound B7] : reported pest or weed control at 250 g/ha = ?
### Response 20

* * *

Test system: Winter Wheat variety 'Hereward'
Experiment: Example B crop damage test, post-emergence, unsafened wheat
Assay type: in vivo
Conditions: Rate 250 g/ha; post-emergence spray after 8 days cultivation; no safener; evaluated after 13 days
recorded.metric: Winter Wheat (Hereward) damage (100=total damage to plant; 0=no damage to plant)
Respond with the number and no other words.

Cc1cc(C)c(C2=C(OC(=O)C(C)(C)C)C(CC3CCC(=NO)CC3)CC2=O)c(C)c1 (stereo not drawn) [Compound B5]; 40

### Prompt Entry Cc1cc(C)c(C2C(=O)C/C(=C\C3CC3)C2=O)c(C)c1 (stereo not drawn) [Compound A27] : reported Winter Wheat (Hereward) damage (100=total damage to plant; 0=no damage to plant) = ?
### Response 40

### Prompt Entry Cc1cc(C)c(C2C(=O)CC(CC3CCC(C)CC3)C2=O)c(C)c1 (stereo not drawn) [Compound A33] please
### Response 40

Values compiled from patent US8791303B2.
